- System: Wolbachia pipientis
- method: Anti-Wolbachia Cell-Based Screen
- Format: functional
- Design: scale not given: in the data most compounds retested in dose-response had high values
- conditions: 5 µM
The whole screen tested about 48,000 compounds, of which about 13,000 (27%) showed an effect of 50% or more. The list shows a part of the results.
quantity-measured: Percent Effect (%)

>>> meas_value("O=C1CCCN1CCc1noc(-c2ccsc2)n1")
1.002
>>> meas_value("Cc1nsc(NC2CCOC3(CCCCC3)C2)n1 (stereo unspecified)")
-0.6251
>>> meas_value("O=C(NC1CC(=O)N(Cc2cccc(F)c2)C1)c1ccncc1 (stereo unspecified)")
2.208
>>> meas_value("CN(Cc1ccco1)C(=O)NCc1nnc2n1CCC2")
1.808
>>> meas_value("CC1CN(C(=O)c2ccnc(-n3cncn3)c2)c2ccccc2S1 (stereo unspecified)")
-6.511
>>> meas_value("NC(=O)C1CCCN1CCCc1ccc(Cl)cc1 (stereo unspecified)")
-0.6682
>>> meas_value("O=C1NCCN(C(=O)c2cn3ccsc3n2)C1c1cccc(F)c1 (stereo unspecified)")
-4.51
>>> meas_value("O=C1CO[C@@H]2CN(C(=O)CCc3ccccc3)C[C@H]2N1")
-22.36
>>> meas_value("CN(Cc1ccc(F)cc1)C(=O)NCc1nnc2n1CCC2")
105
>>> meas_value("C=C(C)CN1CCC(NC(=O)Nc2cc(C(N)=O)ccc2OC)CC1")
-10.13
>>> meas_value("COc1ccc(NC(=O)N2CCC3(CC2)NC(=O)CC3C(=O)O)cc1Cl (stereo unspecified)")
-5.291
>>> meas_value("O=C1[C@@H]2CCN(CC3CC3)C[C@@H]2OCCN1c1ccsc1")
-4.722
>>> meas_value("O=C(c1ccccn1)N1C[C@@H]2CC[C@H](C1)N(C(=O)CCc1ccsc1)C2")
-35.6
>>> meas_value("O=C(N[C@@H]1CN(Cc2ccc(F)c(F)c2)C[C@H]1O)c1cscn1")
124.1
>>> meas_value("CC(NC(=O)N(C)Cc1ccc2c(c1)OCO2)c1nncn1C (stereo unspecified)")
16.38
>>> meas_value("CS(=O)(=O)N1C[C@@H]2CC[C@H](C1)N(C(=O)CCc1ccsc1)C2")
10.69
>>> meas_value("Cc1nc(C)n(CC2CN(Cc3cccs3)Cc3nccn3C2)n1.O=C(O)C(F)(F)F (stereo unspecified)")
12.7
>>> meas_value("O=C(O)C(F)(F)F.c1csc(CN2Cc3nccn3CC(Cn3cncn3)C2)n1 (stereo unspecified)")
-6.751
>>> meas_value("O=C(CCc1ccccc1)N1CCN(C(=O)c2ccc[nH]2)CC1")
0.009024
>>> meas_value("CN(Cc1cnn(C)c1)C(=O)NCc1nnc2n1CCC2")
-11.71
>>> meas_value("Cc1nnsc1CN(C)C(=O)CN1CC2(CCNCC2)OC1=O")
-6.607
>>> meas_value("Cc1ccccc1C1(O)CCN(C(=O)CCc2cn3ccccc3n2)C1 (stereo unspecified)")
-1.584
>>> meas_value("Cc1nc(N)sc1C(=O)N[C@H]1CN(CCO)C[C@@H]1C1CC1")
15.87
>>> meas_value("CC(C)N1C[C@H](NC(=O)c2coc(COc3cccc(F)c3)n2)[C@@H](O)C1")
0.03825
>>> meas_value("Cn1c2c(ccc1=O)CC(NC(=O)Cc1ccsc1)CC2 (stereo unspecified)")
-9.793
>>> meas_value("COc1ccncc1NCc1cscn1")
0.2861
>>> meas_value("O=C1CCCN1CCc1noc(-c2ccc(Cl)cc2)n1")
5.135
>>> meas_value("Cc1nc(C)n(CC2CCCCN2CCCS(N)(=O)=O)n1 (stereo unspecified)")
-48.39
>>> meas_value("O=c1[nH]c(-c2ccccc2F)nc2c1CCNC2")
-26.1
>>> meas_value("O=C(C1CC=CC1)N1CCC2(CCN(Cc3cccc(F)c3)CC2)C1")
0.9808
>>> meas_value("CCc1cc(N2C[C@H](C3CC3)[C@@H](N)C2)nc(N2CCCC2)n1")
13.06
>>> meas_value("Cc1ccc(N2CC[C@H]3OCC[C@@]3(C(=O)N3CCCC3)C2)nn1")
99.3
>>> meas_value("CN(C)c1ccc(CNC(=O)NCCc2cccs2)cn1")
93.45
>>> meas_value("Cc1cc(CNC(=O)NCc2cccs2)ccc1S(C)(=O)=O")
-12.59
>>> meas_value("Cc1ccc(NC(=O)Nc2cnc(N3CCN(C)CC3)nc2)cc1")
130.1
>>> meas_value("O=C1CCCN1Cc1noc(-c2ccc(Cl)cc2)n1")
123.5
>>> meas_value("CN(Cc1ccc(F)cc1)C(=O)NCc1nnc2n1CCCCC2")
-12.53
>>> meas_value("O=C(O)C(F)(F)F.O=C(c1ccco1)N1CCCC2(CN(Cc3cccs3)CCO2)C1 (stereo unspecified)")
7.002
>>> meas_value("COCC1CCN(C(=O)c2cc(O)nc(CC(C)C)c2)CC1")
9.231
>>> meas_value("O=C(O)C(F)(F)F.O=C(c1ccco1)N1CCC2(CCCN(c3ncccn3)C2)C1 (stereo unspecified)")
85.77
>>> meas_value("O=C(N[C@@H]1CN(Cc2cccc3[nH]ccc23)C[C@H]1O)c1cscn1")
113.8
>>> meas_value("O=C1C[C@H]2CC[C@@H](CN1)N2C(=O)Cc1ccsc1")
116.9
>>> meas_value("Cc1ccc(N2CCC3(CC2)CCN(C2CCOCC2)CC3)nn1.O=C(O)C(F)(F)F")
-17.16
>>> meas_value("CS(=O)(=O)c1nccn1Cc1ccc(F)cc1Cl")
-6.222
>>> meas_value("COc1ccc(NC(=O)NC(C)c2nc[nH]n2)cc1Cl (stereo unspecified)")
-12.73
>>> meas_value("Cc1cccc(OC2CCN(c3ccc(C#N)cn3)CC2)n1")
-50.95
